Test system: UACC-62 melanoma
test: NCI tumour cell line growth inhibition, 48 h
measured_endpoint: TGI

input: For CCOC(=O)/C(O)=C(\C=N\C(=S)Nc1ccc(Cl)c(Cl)c1)C(=O)OCC , what is its reported TGI?
output: > 100 µM

input: Proceed to CCOC(=O)C(=Cc1ccccc1Br)C(=O)OCC
output: 4.79 µM

input: Proceed to N#C/C(=C/N1CCN(C(=O)c2ccco2)C1=S)C(N)=O
output: 38.3 µM

input: Proceed to NCCOc1ccccn1
output: > 100 µM

input: Proceed to Fc1ccc(C(=NCc2ccccc2)N2CCOCC2)cc1
output: > 100 µM

input: Proceed to OC(Cn1cncn1)(Cn1cncn1)c1ccc(Cl)cc1Cl
output: > 100 µM

input: Proceed to Cn1cc(C(=O)C2CCCCC2)ccc1=O
output: > 100 µM

input: Proceed to O=C(OCCOCCOC(=O)c1c[nH]cc1-c1ccccc1)c1c[nH]cc1-c1ccccc1
output: 31 µM

input: Proceed to CC(C)(C)CC(C)(C)Cc1ccc(OCCOCC[N+](C)(C)Cc2ccccc2)cc1
output: 2.54 µM

input: Proceed to COc1nc2c(nc(N)n2C2OC(CO)C(O)C(O)C2O)c(=O)n1C (stereo not given)
output: > 100 µM

input: Proceed to O=S1(=O)CSc2ccc3ccccc3c2-c2c1ccc1ccccc21
output: > 100 µM

input: Proceed to COCOc1cc(OC)ccc1C=O
output: > 100 µM

input: Proceed to Cc1c2c(nn1-c1ccc(S/N=C3\SCC(=O)CN3c3ccccc3)cc1)-c1ccccc1CC2
output: > 50 µM

input: Proceed to COc1ccc2c(c1)CC[C@@H]1C2CC[C@]2(C)OC(=O)CCC12 (stereo not given in full)
output: > 100 µM

input: Proceed to CC(=O)NC1C(OCC(=O)NC(C)C(=O)NC(CCC(=O)NCCCCCNc2ccc([N+](=O)[O-])c3[nH]c4ccccc4c(=O)c23)C(N)=O)C(O)C(CO)OC1(C)OCc1ccccc1 (stereo not given)
output: > 50 µM

====

Test system: SF-268 CNS
test: NCI tumour cell line growth inhibition, 48 h
Where a SMILES comes first, the peptide text is derived from it. [ ]: non-standard residue; d: D form. The star is where a group is joined. ξ: configuration not given here. X28 = COC1=CC(=O)N(C(=O)[C@@H](O*)C(C)C)[C@H]1Cc1ccccc1; X37 = O=C(OCc1ccccc1)[C@@H]1CCC[C@H]1N*; Fmoc = O=C(OCC1c2ccccc2-c2ccccc21)*; ξW = NC(Cc1c[nH]c2ccccc12)C(=O)O; NMeL = CN[C@@H](CC(C)C)C(=O)O; ξF = NC(Cc1ccccc1)C(=O)O; Hexanoyl = CCCCCC(=O)*; Boc = CC(C)(C)OC(=O)*; ξK = NCCCCC(N)C(=O)O; ξT = CC(O)C(N)C(=O)O; tBu = CC(C)(C)*
measured_endpoint: TGI

input: For CC(=O)OCC1OC(n2c(-c3ccccc3)c(N=Nc3ccc(Cl)cc3)c(C)c(C#N)c2=S)C(OC(C)=O)C(OC(C)=O)C1OC(C)=O (stereo unspecified) , what is its reported TGI?
output: > 100 µM

input: Proceed to CCCCCC(=O)N[C@H](C(=O)N[C@H](C(=O)N(C)[C@@H](CC(C)C)C(=O)N1CCC[C@H]1C(=O)N1CCC[C@H]1C(=O)O[C@H](C(=O)N1C(=O)C=C(OC)[C@@H]1Cc1ccccc1)C(C)C)C(C)C)C(C)C (Hexanoyl-VV[NMeL]PP-X28)
output: > 100 µM

input: Proceed to Cc1cc(SCC(=O)c2ccc(Br)cc2)cc(C)[o+]1
output: > 100 µM

input: Proceed to C[n+]1c2ccccc2c(NC2CCNCC2)c2[nH]c3ccccc3c21
output: 0.773 µM

input: Proceed to COc1ccc(OC)c2c1C[C@@H]1C(C#N)N3[C@H](Cc4c(OC)ccc(OC)c4[C@@H]3C)C(=O)N1[C@H]2C (stereo partly specified)
output: 6.71 µM

input: Proceed to CC(C)(C)c1ccc(-c2nnc(SCc3ccc(Cl)cc3)n2-c2cccc(C(F)(F)F)c2)cc1
output: > 100 µM

input: Proceed to CCOC(=O)[C@H]1Nc2ccc(O)cc2C2c3ccccc3CC21 (stereo partly specified)
output: > 100 µM

input: Proceed to NCCOc1ccccn1
output: > 100 µM

input: Proceed to Cc1cc2c(=O)cc(-c3ccc(Cl)cc3)oc2c(C(=O)O)c1C
output: > 100 µM

input: Proceed to Cn1c(=O)c(F)c(Nc2ccc(I)cc2F)c2c(=O)n(C[C@@H](O)CO)cnc21
output: > 82.5 µM

input: Proceed to C[Si](C)(C)C#C[I+]c1ccccc1
output: > 100 µM

input: Proceed to Cc1cccc(Nc2cn(CCOc3ccccc3)c(=O)[nH]c2=O)c1
output: > 100 µM

input: Proceed to C[Si](C)(C)/C(Br)=C\CCN1C(=O)CCC1O (stereo unspecified)
output: > 100 µM

input: Proceed to COc1cc(-c2ccc(-c3ccc(C(=N)N)s3)s2)cc(OC)c1OC
output: 3.49 µM

input: Proceed to OC(Cn1cncn1)(Cn1cncn1)c1ccc(Cl)cc1Cl
output: > 100 µM

input: Proceed to COc1ccc(NS(=O)C2CCCCC2)cc1 (stereo unspecified)
output: > 100 µM

input: Proceed to O=c1c(-c2ccccc2)c[nH]c2cc([N+](=O)[O-])c(/C(Cl)=C/c3ccccc3)cc12
output: 16.7 µM

input: Proceed to O=S1(=O)CSc2ccc3ccccc3c2-c2c1ccc1ccccc21
output: > 100 µM

input: Proceed to Nc1nc(Cl)cc(NCC2(CO)CC(CCCCc3ccccc3)C2)n1 (stereo unspecified)
output: > 100 µM

input: Proceed to CCCCCCCCCCCCC(Br)C(=O)SCCNC(=O)CCNC(=O)[C@@H](O)C(C)(C)COP(=O)(O)OP(=O)(O)OCC1OC(n2cnc3c(N)ncnc32)C(O)C1OP(=O)(O)O (stereo partly specified)
output: > 56.5 µM

input: Proceed to C/C=C/C1(NS(=O)(=O)c2ccc(C)cc2)CCC(C(C)(C)C)CC1 (stereo unspecified)
output: 59.5 µM

input: Proceed to CCOc1ccc(NC(=O)C2=C(C)NC(C)=C(C(=O)Nc3ccc(OCC)cc3)C2c2ccc([N+](=O)[O-])cc2)cc1
output: > 100 µM

input: Proceed to Cc1ccc(Cl)cc1Nc1nc(C(F)(F)F)ccc1C(=O)Oc1ccc(Cl)cc1
output: 38.7 µM

input: Proceed to Cc1ccc(/C=C2\CCOC2=O)cc1
output: > 100 µM

input: Proceed to Cc1nc2cc(O)c(O)cc2cc1Oc1ccc(NC(=O)Nc2ccc(Cl)c(Cl)c2)cc1
output: > 32.5 µM

input: Proceed to CC(OC(C)(C)C)C(NC(=O)C(CCCCNC(=O)OC(C)(C)C)NC(=O)C(Cc1c[nH]c2ccccc12)NC(=O)C(Cc1ccccc1)NC(=O)OCC1c2ccccc2-c2ccccc21)C(=O)NC(Cc1ccccc1)C(=O)N[C@@H]1CCC[C@H]1C(=O)OCc1ccccc1 (stereo partly specified) (Fmoc-[ξF][ξW][ξK](Boc)[ξT](tBu)[ξF]-X37)
output: > 100 µM

input: Proceed to CO/N=C1/c2cc(OC)ccc2-c2c(NOC)nc3ccccc3c21
output: > 100 µM

input: Proceed to CCOC(=O)c1ccc(N=C/C=C(\Nc2ccc(C(=O)OCC)cc2)c2ccc3ccccc3c2)cc1
output: > 100 µM

input: Proceed to Cc1cn2c(/C=C3/C(=O)Nc4ccccc43)c(-c3ccccc3)nc2s1
output: > 100 µM

input: Proceed to CN1CCN(c2ccc3nc(-c4ccc(OCCCN5C(=O)c6cccc7cccc(c67)C5=O)cc4)[nH]c3c2)CC1
output: 99.8 µM

input: Proceed to Cc1cc(Cl)ccc1N1C(=O)C(=O)C(c2nc3ccccc3s2)C(=O)C1=O
output: > 100 µM

input: Proceed to COc1ccc(N=NN2CCCC2)cc1
output: > 100 µM

input: Proceed to C=C1C(=O)O[C@H]2[C@H]1CC/C(COC(=O)CCC(=O)OC/C1=C/CC[C@@]3(C)O[C@H]3[C@H]3OC(=O)C(=C)[C@@H]3CC1)=C\CC[C@@]1(C)O[C@@H]21
output: 14 µM

input: Proceed to S=C1c2cc(Cl)ccc2NC(=NC2CCCC2)C2CSCN12 (stereo unspecified)
output: > 100 µM

input: Proceed to CCCCCOP(=O)(OCCCCC)C(NC(C)=O)(C(=O)OCC)C(F)(F)F (stereo unspecified)
output: > 100 µM

input: Proceed to CCOC(=O)C1(C(=O)OCC)C[C@H]2CON=C2[C@@H]1c1ccc(C(F)(F)F)cc1
output: > 100 µM
